biological target: human ether-à-go-go-related gene (hERG) potassium channel (human, UniProt Q12809); test: primary screen, population patch clamp on CHO cells stably expressing hERG; higher = less effect of the substance
Sequence (Q12809 whole entry, looked up): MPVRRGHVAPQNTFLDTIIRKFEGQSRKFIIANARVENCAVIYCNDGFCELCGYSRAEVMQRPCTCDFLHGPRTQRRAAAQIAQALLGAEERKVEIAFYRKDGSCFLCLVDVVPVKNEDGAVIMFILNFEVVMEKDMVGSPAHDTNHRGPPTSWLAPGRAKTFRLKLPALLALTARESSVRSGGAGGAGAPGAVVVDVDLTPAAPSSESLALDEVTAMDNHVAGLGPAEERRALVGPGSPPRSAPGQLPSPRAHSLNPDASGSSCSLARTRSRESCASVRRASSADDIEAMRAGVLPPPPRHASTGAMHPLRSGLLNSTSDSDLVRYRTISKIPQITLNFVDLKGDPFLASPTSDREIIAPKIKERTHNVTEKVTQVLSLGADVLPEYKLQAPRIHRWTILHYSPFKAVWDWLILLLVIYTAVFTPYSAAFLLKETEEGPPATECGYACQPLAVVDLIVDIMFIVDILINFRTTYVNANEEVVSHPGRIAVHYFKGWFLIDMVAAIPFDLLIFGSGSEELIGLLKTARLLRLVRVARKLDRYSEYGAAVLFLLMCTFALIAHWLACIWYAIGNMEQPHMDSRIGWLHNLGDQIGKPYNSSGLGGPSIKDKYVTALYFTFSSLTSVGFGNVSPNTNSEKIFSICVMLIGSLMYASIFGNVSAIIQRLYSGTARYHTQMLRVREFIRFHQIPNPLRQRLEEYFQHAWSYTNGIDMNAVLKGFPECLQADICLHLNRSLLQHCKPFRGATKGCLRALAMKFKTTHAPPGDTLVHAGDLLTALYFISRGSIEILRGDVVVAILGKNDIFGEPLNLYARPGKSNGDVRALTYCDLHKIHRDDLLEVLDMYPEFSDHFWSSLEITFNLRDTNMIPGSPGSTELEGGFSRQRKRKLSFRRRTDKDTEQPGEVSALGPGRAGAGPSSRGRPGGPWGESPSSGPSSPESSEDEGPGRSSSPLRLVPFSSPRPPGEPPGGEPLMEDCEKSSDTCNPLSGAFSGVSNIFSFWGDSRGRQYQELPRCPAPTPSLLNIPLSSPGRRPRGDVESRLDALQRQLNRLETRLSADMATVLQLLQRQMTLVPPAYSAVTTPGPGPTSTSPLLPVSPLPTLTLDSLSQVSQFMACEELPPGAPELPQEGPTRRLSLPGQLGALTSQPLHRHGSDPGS
About 14,000 (4.5%) of roughly 310,000 compounds showed an effect of 50% or more. The effect is printed as a negative number. The sample as a whole holds a higher share of strong results than the screen did.
Note to self: values exactly at -50% are met. So hERG current change (%, negative = inhibition) at 10uM at or above -50% is met, below is not met.

>>> answer_label("O=C(c1cccc(Cl)c1)N1CCC(C(=O)N2CCN(Cc3ccccc3)CC2)CC1")
"not met"
>>> answer_label("COc1cc(-c2nn3c(-c4cccc(C)c4)nnc3s2)cc(OC)c1OC")
"met"
>>> answer_label("CN(C)C(=O)c1ccc2c3c(cccc13)CC2")
"met"
>>> answer_label("Fc1ccc(NC(=S)NCCc2ccc(Cl)cc2)cc1")
"met"
>>> answer_label("COC(=O)c1ccc2nc(C)cc(Nc3ccc(N(C)C)cc3)c2c1.Cl")
"not met"
>>> answer_label("O=C(c1ccc(Br)cc1)N1CCN(Cc2ccccc2)CC1")
"not met"
>>> answer_label("CC(C)(C)c1ccc(C(=O)N2CCN(Cc3ccccc3)CC2)cc1")
"met"
>>> answer_label("COc1ccc(/C=C2\\S/C(=N/S(=O)(=O)c3cccs3)NC2=O)cc1")
"met"
>>> answer_label("COC(=O)c1ccc(Nc2cc(C)nc3ccc(C)cc23)cc1.Cl")
"not met"
>>> answer_label("O=C(c1cccc(Cl)c1)N1CCN(Cc2ccccc2)CC1")
"met"

###

molecular target: human ether-à-go-go-related gene (hERG) potassium channel (human, UniProt Q12809); assay: primary screen, population patch clamp on CHO cells stably expressing hERG; higher = less effect of the substance;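 also: peak tail current of the secondary pulse compared with the same well before compound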
Hit rate of the full screen: of about 310,000 compounds, about 14,000 (4.5%) showed an effect of 50% or more. The effect is printed as a negative number. Only a selection was taken, and strong results are over-represented in it overall.
Note to self: values exactly at -20% are Yes. So hERG current change (%, negative = inhibition) at 10uM at or above -20% is Yes, below is No.

>>> answer_label("COc1ccc(-n2nc3c(N4CCC(C(=O)N5CCCCCC5)CC4)nnc(C)c3c2C)cc1")
"No"
>>> answer_label("O=C(C1CC1)N1CCc2cc(Br)cc(S(=O)(=O)N3CCN(c4ccccn4)CC3)c21")
"Yes"
>>> answer_label("Cc1ccc(S(=O)(=O)CCc2nc3ccccc3[nH]2)cc1")
"Yes"
>>> answer_label("Cc1ccc(-n2nc3c(N4CCC(C(=O)N5CCCCCC5)CC4)nnc(C)c3c2C)cc1")
"No"
>>> answer_label("COc1ccc(-n2nc3c(N4CCC(C(=O)N5CCC(C)CC5)CC4)nnc(C)c3c2C)cc1")
"No"
>>> answer_label("COc1ccc(NC(=O)CSc2nnc(C3CCCCC3)n2N)cc1OC")
"Yes"
>>> answer_label("COc1ccc(-n2nc3c(N4CCC(C(=O)NC5CCCCC5)CC4)nnc(C)c3c2C)cc1")
"Yes"
>>> answer_label("CCCN1CCN(C(=O)C2CCN(c3nnc(C)c4c(C)n(-c5ccc(C)cc5)nc34)CC2)CC1")
"No"
>>> answer_label("Cc1nnc(N2CCC(C(=O)N3CCCCC3)CC2)c2nn(-c3ccc(Cl)cc3)c(C)c12")
"No"

###

Target: human ether-à-go-go-related gene (hERG) potassium channel (human, UniProt Q12809);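 also: peak tail current of the secondary pulse compared with the same well before compound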
Assay: primary screen, population patch clamp on CHO cells stably expressing hERG; higher = less effect of the substance
Procedure: Briefly, Chinese hamster ovary (CHO) cells stably expressing the hERG channel were dislodged from tissue culture flasks and dispensed into PPC plates. […] During the recording, background leak currents were estimated by a 100 ms step to -80 mV from an initial holding potential of -70 mV and subtracted from the subsequent current measurement. The campaign was conducted in two phases using slight differences in recording protocol. […]
Screen size: about 310,000 compounds; about 14,000 (4.5%) showed an effect of 50% or more. The effect is printed as a negative number. The sample as a whole holds a higher share of strong results than the screen did.
Reported hERG current change (%, negative = inhibition) at 10uM values are given for each entry in this list.
metric.name: hERG current change (%, negative = inhibition) at 10uM (%)

>>> recorded_result("CN1CCN(C(=O)C2=C[C@@H](C3CCCCC3)C[C@@H](OCc3ccc(CO)cc3)O2)CC1")
-13.6
>>> recorded_result("CC(C)(C)[C@H]1C=C(C(=O)N2CCN(Cc3ccccc3)CC2)O[C@@H](OCc2ccc(CO)cc2)C1")
-38.9
>>> recorded_result("CCO[C@H]1OC(C(=O)N2CCN(Cc3ccc4c(c3)OCO4)CC2)=C[C@@H](C2CCCCC2)[C@@H]1CCCO")
-55.5
>>> recorded_result("CCO[C@@H]1OC(C(=O)N2CCN(Cc3ccc4c(c3)OCO4)CC2)=C[C@H](C2CCCCC2)[C@H]1CCCO")
-17.8

###

target: human ether-à-go-go-related gene (hERG) potassium channel (human); test: primary screen, population patch clamp on CHO cells stably expressing hERG; higher = less effect of the substance;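 also: peak tail current of the secondary pulse compared with the same well before compound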
Among all 310,000 compounds or so, about 14,000 (4.5%) showed an effect of 50% or more. Effects have a minus sign here. What follows is part of a selection rich in strong results, with near analogues and random picks from the rest.
Reported hERG current change (%, negative = inhibition) at 10uM values are given for each entry in this list.
metric.name: hERG current change (%, negative = inhibition) at 10uM (%)

>>> recorded_result("CCOC(=O)c1cnc2c(CC)cccc2c1NCCCN1CCOCC1")
-35.6
>>> recorded_result("CS(=O)(=O)Nc1ccc(C2=NN(C(=O)c3ccco3)C(c3ccc(F)cc3)C2)cc1 (stereo not shown)")
-81.1
>>> recorded_result("CN1C(C(=O)NCc2ccc(OC(F)(F)F)cc2)CC2Cn3c(nc4ccccc43)C21 (stereo not shown)")
-78.7
>>> recorded_result("Nc1c(C(=O)c2ccc(Cl)cc2)sc2nc3c(cc12)CCC3")
12
>>> recorded_result("CC(=O)Nc1ccc(S(=O)(=O)Nc2nc3ccccc3nc2Nc2cccc(S(N)(=O)=O)c2)cc1")
10.3
>>> recorded_result("CS(=O)(=O)Nc1ccc(C2=NN(C(=O)c3ccco3)C(c3ccccc3)C2)cc1 (stereo not shown)")
-77.6
>>> recorded_result("O=C(c1ccco1)N1N=C(c2ccc3nccnc3c2)CC1c1ccccc1 (stereo not shown)")
-22.3
>>> recorded_result("CCOC(=O)c1cnc2c(Cl)cccc2c1NCCCN1CCOCC1")
-44.7
>>> recorded_result("CCOC(=O)c1cnc2c(Cl)cc(Cl)cc2c1NCCCN1CCOCC1")
-4.47
>>> recorded_result("CS(=O)(=O)Nc1ccc(C2=NN(C(=O)c3ccco3)C(c3ccco3)C2)cc1 (stereo not shown)")
-72.3
>>> recorded_result("O=C(c1ccco1)N1N=C(c2ccccc2)CC1c1ccc2nccnc2c1 (stereo not shown)")
-45
>>> recorded_result("CCOC(=O)c1cnc2c(C)cccc2c1NCCCN1CCOCC1")
-72.8
>>> recorded_result("CCOC(=O)c1cnc2c(CC)cccc2c1NCCN1CCOCC1")
-44.4
>>> recorded_result("O=C1C=C(c2ccc(F)cc2OCc2ccccc2)C[C@@H](c2ccc(Cl)cc2)C1")
6.91
>>> recorded_result("CCS(=O)(=O)Nc1ccc(C2=NN(C(=O)c3ccco3)C(c3ccc(C)cc3)C2)cc1 (stereo not shown)")
-21
>>> recorded_result("N#CC1(NC(=O)COC(=O)CCCN=C2NS(=O)(=O)c3ccccc32)CCCCC1")
15
>>> recorded_result("CN1C(C(=O)NCC2CC2)CC2Cn3c(nc4ccccc43)C21 (stereo not shown)")
15.5
>>> recorded_result("CCOC(=O)CSc1ncc(-c2ccc([N+](=O)[O-])cc2)[nH]1")
-61
>>> recorded_result("CCC(CC)C(=O)N1N=C(c2ccc(NS(C)(=O)=O)cc2)CC1c1ccc(C)cc1 (stereo not shown)")
-7.85

###

target: human ether-à-go-go-related gene (hERG) potassium channel (human, UniProt Q12809); experiment: primary screen, population patch clamp on CHO cells stably expressing hERG; higher = less effect of the substance;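 also: peak tail current of the secondary pulse compared with the same well before compound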
About 14,000 (4.5%) of roughly 310,000 compounds showed an effect of 50% or more. Effects have a minus sign here. Only a selection was taken, and strong results are over-represented in it overall.
Reported hERG current change (%, negative = inhibition) at 10uM values are given for each entry in this list.
metric.name: hERG current change (%, negative = inhibition) at 10uM

>>> recorded_result("COc1ccc(C(=O)c2nccc3cc(OC)c(OC)cc23)cc1OC")
"6.21%"
>>> recorded_result("CN(CCOc1cccc2ccccc12)Cc1ccccc1.O=C(O)C(=O)O")
"0.659%"
>>> recorded_result("Cc1ccc(N2C(=O)C(CN(C)C)C2c2ccccc2)cc1 (stereo not drawn)")
"-33.1%"
>>> recorded_result("COc1ccccc1CC(=O)N1CCOCC1")
"21%"
>>> recorded_result("Cc1cccc(OCCCC(=O)NCc2ccco2)c1")
"2.27%"
>>> recorded_result("C/C(CC(=O)Nc1cccc2c1CCCC2)=N\\NC(=O)c1cccc2ccccc12")
"-7.31%"
>>> recorded_result("COc1ccc(CCNCc2c(OC)ccc3ccccc23)cc1OC.Cl")
"-44.6%"
>>> recorded_result("CN(C)C(=S)Nc1ccc2ccccc2c1")
"11.2%"
>>> recorded_result("COc1cccc(OC)c1C(=O)NC(C)CCc1ccccc1 (stereo not drawn)")
"-19.1%"
>>> recorded_result("COc1ccc2c(c1)c(=O)c(C(=O)c1ccccc1)cn2Cc1ccc(C)cc1")
"-75%"
>>> recorded_result("CN(Cc1ccccc1)Cc1c(O)ccc2ccccc12")
"7.65%"
>>> recorded_result("COc1ccccc1C1C=C(c2ccc(Cl)cc2)Nc2nc(N3C(=O)CCC3=O)nn21 (stereo not drawn)")
"-32.8%"
>>> recorded_result("COc1ccc(Cn2cc(C(=O)c3ccccc3)c(=O)c3cc(OC)ccc32)cc1")
"-31.3%"
>>> recorded_result("O=C(CN1C(=O)c2ccccc2C1=O)Nc1cccc(S(=O)(=O)Nc2ccccc2Cl)c1")
"19.9%"
>>> recorded_result("COc1ccc(N2C(=O)C(CN3CCN(C)CC3)C2c2ccccc2)cc1 (stereo not drawn)")
"-16%"
>>> recorded_result("Cc1ccc2nc(SCC(=O)N3CCCC3)nc(=O)n2c1")
"-0.651%"
>>> recorded_result("CC(CCc1ccccc1)NCc1cccc2ccccc12.O=C(O)C(=O)O (stereo not drawn)")
"-60.9%"
>>> recorded_result("COc1ccc2ccccc2c1CNC(C)c1ccccc1.O=C(O)C(=O)O (stereo not drawn)")
"-44.4%"
>>> recorded_result("O=C(O)CCCCCCCCc1cn(Cc2ccc(C(=O)c3ccccc3)cc2)nn1")
"19.5%"
>>> recorded_result("Cc1ccc(N2C(=O)C(CN3CCCC3)C2c2ccccc2)cc1 (stereo not drawn)")
"-78.5%"
>>> recorded_result("O=C(COC(=O)c1ccc(F)c(S(=O)(=O)N2CCOCC2)c1)NC1CC1")
"-17.4%"

Data origin: paper PMC4336329
